Data origin, for the record: paper PMC5540273

Overview of recorded %Inh for various molecules
System: CHEK1
Conditions: concentration: 1 μM, replicates: in singlicate; n = 1;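 note: KINOMEscan kinase panel screen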
Numeric answer only, unit % assumed.

Reference set (3 entries):
>>> print(df.to_string())
                                   molecule  value_unit  value
0  COc1cc(OC)cc(-c2cc3cnc(N)nc3nc2NC(=O)NC(C)(C)C)c1           %      0
1  O=C(Nc1ccc2c(c1)OCO2)NC1CCN(c2ccnc(NCc3ccc(F)cc3)n2)CC1           %     19
2  CCC(=O)c1c(-c2ccccc2)c2cc(Cl)ccc2c(=O)n1Cc1cc(C(=O)NC2CC2)n(C)n1           %      0

Given item "CN1C(=O)C(Nc2cc(Cl)c(O)c(Cl)c2)=C(c2ccc(Cl)cc2)C1=O" , the value recorded as its %Inh is 0

----------
Test system: PAK1
Conditions: concentration: 1 μM, replicates: in singlicate; n = 1
Overview of recorded %Inh for various compounds
Numeric answer only, unit % assumed.

>>> print(df.to_string())
                                   compound  target_under_test  value
0  Cc1cccc(-c2cc(-c3c[nH]nc3-c3ccccn3)ccn2)c1               PAK1     24
1  CCS(=O)c1ccc(-c2coc3ccc(-c4nnc(C)o4)cc23)cc1 (stereo not shown)               PAK1      0
2   Nc1n[nH]c2nnc(-c3ccccc3)c(-c3ccccc3)c12               PAK1      0
3  Cc1cccc(-c2nc(Nc3ccc4c(cnn4C)c3)c3ccccc3n2)n1               PAK1      6

Given item "COc1cc2nccc(Nc3ccc(OCc4ccc(NC(C)=O)cc4)cc3)c2cc1OC.Cl" , the value recorded as its %Inh is 0

Given item "Nc1n[nH]c2ncc(-c3ccccc3)cc12" , the value recorded as its %Inh is 7

Given item COc1cc(Nc2nccc(N3CCC(NC(=O)C(C)c4ccc(Cl)cc4)C3)n2)cc(OC)c1OC (stereo not shown) , the value recorded as its %Inh is 10

Given item "CCc1ccc(-c2ccc3c(c2)-c2nn(C)cc2S(=O)(=O)N3C)cc1" , the value recorded as its %Inh is 0

----------
System: CSNK1E
Details: concentration: 1 μM, replicates: in singlicate; n = 1
OBSERVATION TYPE: %Inh (%)
Numeric answer only, unit % assumed.

>>> df
                                   compound  observation_type  value_unit  value
0     CCCNC(=O)Nc1ccc(Oc2ncnc3ccn(C)c23)cc1              %Inh           %      0
1  COc1cc(Nc2nccc(N3CCC(NC(=O)C4COc5ccccc5O4)C3)n2)cc(OC)c1OC (centres unmarked)              %Inh           %      0
2  CCC(=O)c1c(-c2ccccc2)c2cc(Cl)ccc2c(=O)n1Cc1cc(S(C)(=O)=O)n(CC(N)=O)n1              %Inh           %      0
3      CN1C(=O)C(Nc2ccccc2)=C(c2ccccc2)C1=O              %Inh           %      0

Then this compound:
Given item "Cc1ccccc1COc1cc(-n2cnc3cc(Cl)ccc32)sc1C(N)=O" , the value recorded as its %Inh is 2

----------
System: EPHA7
Settings: concentration: 1 μM, replicates: in singlicate; n = 1
OBSERVATION TYPE: %Inh (%)
Numeric answer only, unit % assumed.

Reference set (8 entries):
                                   compound  value
0  COc1ccc(-c2cc3c(C)nc(N)nc3n([C@H]3CC[C@H](OCCO)CC3)c2=O)cn1      0
1  COc1cc2nccc(Nc3cccc(Oc4ccccc4)c3)c2cc1OC.Cl      0
2  CC(C)(C)c1ccc(C(=O)Nc2cn3cc(-c4ccccc4)ccc3n2)cc1      0
3     Nc1nc(-c2ccccc2F)c(-c2ccnc3ccccc23)s1      0
4  CCS(=O)(=O)c1ccc(OC)c(Nc2ncc(-c3ccc(F)cc3)o2)c1.Cl      0
5  Cc1nn2c(=O)cc(N3CCOCC3)nc2n1Cc1cccc(Cl)c1Cl      0
6    Fc1cccc(CSc2nnc(-c3ccc4c(c3)CCO4)o2)c1     10
7      O=C1NC(=O)C(c2ccccc2)=C1Nc1cccc(O)c1     16

Given item "Cc1cccc(-c2nc(Nc3ccc4c(cnn4C)c3)c3ccccc3n2)n1" , the value recorded as its %Inh is 0

Given item "CCCNC(=O)Nc1ccc(Oc2ncnc3ccn(C)c23)cc1" , the value recorded as its %Inh is 0

Given item "O=C(NCCNc1ccnc(Nc2ccc(F)cc2)n1)Nc1ccc2c(c1)OCO2" , the value recorded as its %Inh is 0

Given item "CCC(=O)c1c(-c2ccccc2)c2cc(Cl)ccc2c(=O)n1Cc1cc(S(C)(=O)=O)n(CCC(C)(C)O)n1" , the value recorded as its %Inh is 10

Given item "FC(F)(F)c1ccc(-c2ncn(CCCN3CCOCC3)c2-c2ccncc2)cc1" , the value recorded as its %Inh is 0

Given item "O=C(NCc1cccs1)c1cc(C(=O)c2c(Cl)cccc2Cl)c[nH]1" , the value recorded as its %Inh is 0

Given item "COc1cccc(C2=C(N(C)c3ccccc3)C(=O)NC2=O)c1" , the value recorded as its %Inh is 5

Given item "Cc1ccc(Oc2ccc(Nc3ncnc4cc[nH]c34)cc2C)cn1" , the value recorded as its %Inh is 0

----------
Tested on: MYO3B
Details: concentration: 1 μM, replicates: in singlicate; n = 1
Overview of recorded %Inh for various molecules
Numeric answer only, unit % assumed.

Reference set (3 entries):
In [3]: df
Out[3]:
                                   molecule  observation_type  value
0  COc1ccc(CNC(=O)NC2CCN(c3ccnc(Nc4ccc(F)cc4)n3)C2)cc1 (stereo not drawn)              %Inh      0
1  CCCC(=O)Nc1n[nH]c2ncc(-c3cccc4ccccc34)cc12              %Inh      0
2  Cc1cccc(-c2nc(Nc3ccc4c(cnn4C)c3)c3ccccc3n2)n1              %Inh      0

Then this molecule:
Given item "COc1cc2ncn(-c3cc(OCc4ccncc4)c(C(N)=O)s3)c2cc1OC" , the value recorded as its %Inh is 0

----------
System: SRPK3
Conditions: concentration: 1 μM, replicates: in singlicate; n = 1
Overview of recorded %Inh for various compounds
Numeric answer only, unit % assumed.

>>> df
                                   compound  target_under_test  observation_type  value
0  Nc1nc(-c2ccccc2F)c(-c2ccnc3ccccc23)s1 [GW560459]              SRPK3              %Inh      0

Given item "CCC(=O)c1c(-c2ccccc2)c2cc(Cl)ccc2c(=O)n1Cc1cc(S(C)(=O)=O)n(CC(F)F)n1" , the value recorded as its %Inh is 0

Given item "Cc1nc(N(C)[C@H]2CN(C(=O)CC#N)CC[C@H]2C)c2cc[nH]c2n1" , the value recorded as its %Inh is 1

Given item C[C@@H]1CC[C@H](C(=O)NC2CCCCC2)CN1c1cc(-c2ccc3c(N)n[nH]c3c2)nc(N)n1 [GSK2291363] , the value recorded as its %Inh is 36

----------
Tested on: PCTK2
Construct: gene CDK17
Conditions: concentration: 1 μM, replicates: in singlicate; n = 1
Overview of recorded %Inh for various compounds
Numeric answer only, unit % assumed.

>>> df
                                   compound  target_under_test  observation_type  value
0  Cc1cc(Nc2nc(-c3cccc(C)n3)nc3ccccc23)ccn1              PCTK2              %Inh      0
1      CN1C(=O)C(Nc2ccccc2)=C(c2ccccc2)C1=O              PCTK2              %Inh      0
2  CCS(=O)(=O)c1ccc(OC)c(Nc2ncc(-c3ccc(F)cc3)o2)c1.Cl              PCTK2              %Inh      0
3  O=C(Nc1ccc2c(c1)OCO2)NC1CCN(c2ccnc(NCc3ccc(F)cc3)n2)CC1              PCTK2              %Inh      0
4        CCc1nc(-c2cccc(C)c2)c(-c2ccncc2)s1              PCTK2              %Inh      1
5  O=C(Nc1n[nH]c2nc(-c3ccccc3)c(Cl)cc12)C1CC1              PCTK2              %Inh      0
6  Cl.c1ccc(Cn2cnc3cc(Nc4ncnc5ccccc45)ccc32)cc1              PCTK2              %Inh      0
7  Cc1nn2c(=O)cc(N3CCOCC3)nc2n1Cc1cccc(Cl)c1Cl              PCTK2              %Inh      0
8  COc1cc(OC)cc(-c2cc3cnc(N)nc3nc2NC(=O)NC(C)(C)C)c1              PCTK2              %Inh      0
9  Cn1c(=O)c(F)c(Nc2ccc(I)cc2F)c2c(=O)n(OC[C@H](O)CO)cnc21              PCTK2              %Inh     11

Then this compound:
Given item "CCCNC(=O)Nc1ccc(Oc2ncnc3ccn(C)c23)cc1" , the value recorded as its %Inh is 8
